Tested on: HEK293
Assay: Cellular IC50 HEK293
Assay type: cell-based
Settings: Homo sapiens, HEK293; read-out: Cellular IC50 HEK 293
pIC50: −log10 of the molar value.
Label yes when pIC50 >= 6; otherwise no.

1. CCOc1ccc(-c2nnc([C@H]3C[C@H](NC(=O)c4cccc(O)c4)C3)n2-c2ccccc2F)nc1 = yes
2. CCOc1ccc(-c2nnc([C@H]3C[C@H](NC(=O)c4cccc(S(N)(=O)=O)c4)C3)n2-c2ccccc2F)nc1 = no
3. CCOc1ccc(-c2nnc([C@H]3C[C@H](NC(=O)c4cccc(=O)[nH]4)C3)n2-c2ccccc2F)nc1 = no
4. CCOc1ccc(-c2nnc([C@H]3C[C@H](NC(=O)c4cccc5cc(O)cnc45)C3)n2-c2ccccc2F)nc1 = yes
5. CCOc1ccc(-c2nnc([C@H]3C[C@H](NC(=O)c4ccc[n+]([O-])c4)C3)n2-c2ccccc2F)nc1 = no
6. CCOc1ccc(-c2nnc([C@H]3C[C@H](NC(=O)c4cccc5cc(O)ccc45)C3)n2-c2ccccc2F)nc1 = no
7. CCOc1ccc(-c2nnc([C@H]3C[C@H](NC(=O)c4cccc(C(=O)NC)n4)C3)n2-c2ccccc2F)nc1 = yes
